# TARGET_SYSTEM: tyrosinase (Mus musculus)
# Construct: To measure the tyrosinase activity of the cells, the B16-F10 cells treated for 3 days; endogenous in cells; host or cells: B16-F10 melanoma cells
# Sequence (P11344 19-533): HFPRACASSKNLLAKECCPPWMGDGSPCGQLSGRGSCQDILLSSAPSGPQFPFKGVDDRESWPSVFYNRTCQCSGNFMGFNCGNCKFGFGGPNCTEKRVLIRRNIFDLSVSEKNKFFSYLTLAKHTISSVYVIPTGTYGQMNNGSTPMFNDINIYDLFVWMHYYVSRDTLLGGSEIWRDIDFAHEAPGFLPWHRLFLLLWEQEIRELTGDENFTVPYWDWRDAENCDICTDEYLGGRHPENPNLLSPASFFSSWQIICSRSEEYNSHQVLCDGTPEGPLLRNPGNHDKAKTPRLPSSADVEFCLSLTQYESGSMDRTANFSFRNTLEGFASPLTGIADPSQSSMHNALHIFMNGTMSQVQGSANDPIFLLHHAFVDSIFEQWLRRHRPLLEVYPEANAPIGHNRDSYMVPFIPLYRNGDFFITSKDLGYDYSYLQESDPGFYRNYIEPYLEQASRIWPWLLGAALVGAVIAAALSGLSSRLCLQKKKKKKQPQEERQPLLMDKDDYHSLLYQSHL
# MEASUREMENT_PROTOCOL: Tyrosinase activity assay in B16-F10 melanoma cells
# Assay type: cell-based
# CONDITION_DESCRIPTION: 72 h treatment, read-out: inhibits melanin synthesis IC50
MEASURED_PARAMETER: IC50 (µM)
The figure you give is taken to be in µM; do not add the unit.

The reported IC50 of the compound CCCCCC1=NN(C(=O)CCO)OC(CCCCC)C1 (stereo not shown) was 0.0169

Data origin, for the record: patent EP3744328B1
